# measuredOn: Platelet-derived growth factor receptor beta (Homo sapiens, UniProt P09619)
# Sequence (P09619 whole entry, looked up): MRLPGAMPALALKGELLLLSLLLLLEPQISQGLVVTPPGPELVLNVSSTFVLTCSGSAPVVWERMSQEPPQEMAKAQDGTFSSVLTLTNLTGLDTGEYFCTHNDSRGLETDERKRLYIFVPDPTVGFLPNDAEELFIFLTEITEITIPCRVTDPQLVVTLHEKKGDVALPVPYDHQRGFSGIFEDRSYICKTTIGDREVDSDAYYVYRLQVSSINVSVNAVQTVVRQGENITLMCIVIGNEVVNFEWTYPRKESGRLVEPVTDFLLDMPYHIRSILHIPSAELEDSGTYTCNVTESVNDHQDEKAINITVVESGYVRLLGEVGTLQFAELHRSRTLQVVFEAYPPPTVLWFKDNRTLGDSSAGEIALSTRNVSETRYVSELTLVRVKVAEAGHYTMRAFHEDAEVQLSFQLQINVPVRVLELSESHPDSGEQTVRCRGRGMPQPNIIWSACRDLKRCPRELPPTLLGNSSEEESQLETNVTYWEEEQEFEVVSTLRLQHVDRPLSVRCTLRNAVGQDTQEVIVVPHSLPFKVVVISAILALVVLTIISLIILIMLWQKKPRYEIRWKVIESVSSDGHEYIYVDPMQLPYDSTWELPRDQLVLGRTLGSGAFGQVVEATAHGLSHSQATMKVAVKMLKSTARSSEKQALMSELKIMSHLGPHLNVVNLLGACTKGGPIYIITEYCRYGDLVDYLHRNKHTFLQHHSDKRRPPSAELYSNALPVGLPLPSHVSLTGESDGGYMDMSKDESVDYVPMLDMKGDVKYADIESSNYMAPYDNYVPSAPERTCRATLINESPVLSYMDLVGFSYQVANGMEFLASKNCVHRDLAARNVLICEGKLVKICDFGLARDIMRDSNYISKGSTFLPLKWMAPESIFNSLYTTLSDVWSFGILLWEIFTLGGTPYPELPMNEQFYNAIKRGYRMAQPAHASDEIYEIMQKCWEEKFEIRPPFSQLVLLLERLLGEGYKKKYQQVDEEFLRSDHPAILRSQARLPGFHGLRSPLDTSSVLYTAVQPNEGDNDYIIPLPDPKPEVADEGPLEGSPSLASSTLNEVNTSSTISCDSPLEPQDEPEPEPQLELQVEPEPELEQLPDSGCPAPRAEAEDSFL
# measurementProtocol: Inhibition of PDGFRbeta phosphorylation in human MG63 cells
measuredMetric: IC50 (nM)
Quick note: give the figure in nM, leave out the unit.

What IC50 appears in the records for this compound with Platelet-derived growth factor receptor beta (Homo sapiens, UniProt P09619)? CCN1C(C)(C)CC(Oc2ccc(C(=O)Nc3ccc(NC(=O)Nc4cc(C(C)(C)C)on4)cc3)nc2)CC1(C)C
7.7

====

# measuredOn: Macrophage colony-stimulating factor 1 receptor (Homo sapiens, UniProt P07333)
# Sequence (P07333 whole entry): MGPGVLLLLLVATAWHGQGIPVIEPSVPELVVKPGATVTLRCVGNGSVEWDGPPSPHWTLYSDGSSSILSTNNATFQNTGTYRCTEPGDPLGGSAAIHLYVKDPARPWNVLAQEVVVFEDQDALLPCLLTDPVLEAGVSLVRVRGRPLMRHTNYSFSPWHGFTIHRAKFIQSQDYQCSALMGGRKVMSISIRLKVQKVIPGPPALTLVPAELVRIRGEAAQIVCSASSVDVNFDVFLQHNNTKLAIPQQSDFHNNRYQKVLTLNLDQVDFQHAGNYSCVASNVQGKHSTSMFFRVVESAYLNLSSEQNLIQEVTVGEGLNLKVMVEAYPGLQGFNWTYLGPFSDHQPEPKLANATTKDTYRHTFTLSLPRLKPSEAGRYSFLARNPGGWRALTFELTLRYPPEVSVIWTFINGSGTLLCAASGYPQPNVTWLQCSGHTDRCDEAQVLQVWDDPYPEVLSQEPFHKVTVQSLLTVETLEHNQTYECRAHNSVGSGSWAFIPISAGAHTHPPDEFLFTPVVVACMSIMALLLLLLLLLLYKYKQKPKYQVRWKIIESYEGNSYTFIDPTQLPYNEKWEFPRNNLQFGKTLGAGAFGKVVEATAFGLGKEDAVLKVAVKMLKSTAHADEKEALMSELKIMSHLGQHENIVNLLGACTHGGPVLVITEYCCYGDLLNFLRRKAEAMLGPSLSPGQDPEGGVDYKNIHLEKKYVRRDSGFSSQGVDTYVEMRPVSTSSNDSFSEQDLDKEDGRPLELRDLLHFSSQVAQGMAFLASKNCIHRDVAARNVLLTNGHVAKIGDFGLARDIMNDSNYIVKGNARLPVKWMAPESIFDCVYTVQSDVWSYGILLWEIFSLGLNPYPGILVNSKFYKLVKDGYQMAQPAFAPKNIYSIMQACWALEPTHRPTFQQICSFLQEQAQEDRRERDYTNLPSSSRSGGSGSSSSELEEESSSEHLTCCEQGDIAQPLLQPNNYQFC
measuredMetric: pKd
Quick note: pKd means taking -log10 of the concentration in moles per liter.

What pKd appears in the records for this compound with Macrophage colony-stimulating factor 1 receptor (Homo sapiens, UniProt P07333)? CCN1C(C)(C)CC(Oc2ccc(C(=O)Nc3ccc(NC(=O)Nc4cc(C(C)(C)C)on4)cc3)nc2)CC1(C)C
8.80

Where these numbers come from: ChEMBL document CHEMBL2203000
